- Tested on: Escherichia coli TOP10
- test.protocol: shrunken log2 fold change of peptide-encoding DNA abundance (4.5 h post-induction vs induction); higher = less antimicrobial activity (less host growth inhibition)
- experimental.setup: time post-induction: 4.5 h; library: site-saturation at positions 5, 18, 19, 20
Quick rule: shrunken log2 fold change of at least -0.08 means Y, below that means N.

Worked examples follow.
| seq.text | category.label |
| --- | --- |
| RRIRNRPPRLPRPRPRPRKFPRP | N |
| RRIRSRPPRLPRPRPRPGIHPRP | Y |
| RRIRYRPPRLPRPRPRPGHMPRP | N |
| RRIRHRPPRLPRPRPRPIQKPRP | Y |
| RRIRKRPPRLPRPRPRPWNDPRP | Y |
| RRIRVRPPRLPRPRPRPYVCPRP | N |
| RRIRSRPPRLPRPRPRPHTHPRP | N |
| RRIRFRPPRLPRPRPRPYLPPRP | N |
| RRIRWRPPRLPRPRPRPGVVPRP | Y |
| RRIRMRPPRLPRPRPRPERCPRP | Y |

**Q:** Reported shrunken log2 fold change reaches at least -0.08 for RRIRGRPPRLPRPRPRPYHVPRP ?
**A:** Y

**Q:** Reported shrunken log2 fold change reaches at least -0.08 for RRIRQRPPRLPRPRPRPNYWPRP ?
**A:** N

====

Consider the following sequences; for each one, report its shrunken log2 fold change.
- System: Escherichia coli TOP10
- test.protocol: shrunken log2 fold change of peptide-encoding DNA abundance (4.5 h post-induction vs induction); higher = less antimicrobial activity (less host growth inhibition)
- experimental.setup: time post-induction: 4.5 h; library: site-saturation at positions 5, 18, 19, 20
Numbers only.

Worked cases, answers included:
| seq.text | shrunken log2 fold change |
| --- | --- |
| RRIRSRPPRLPRPRPRPQSLPRP | -0.232 |
| RRIRQRPPRLPRPRPRPWFCPRP | -0.282 |
| RRIRVRPPRLPRPRPRPYDQPRP | -0.192 |
| RRIRLRPPRLPRPRPRPQSIPRP | -0.0983 |
| RRIRERPPRLPRPRPRPRSAPRP | 0.25 |

Could you report shrunken log2 fold change for every entry in the following list?
1. RRIRWRPPRLPRPRPRPDPPPRP
2. RRIRCRPPRLPRPRPRPRPYPRP

**A:**
1: 0.575; 2: -0.0927

====

- Test system: Escherichia coli TOP10
- test.protocol: shrunken log2 fold change of peptide-encoding DNA abundance (4.5 h post-induction vs induction); higher = less antimicrobial activity (less host growth inhibition)
- experimental.setup: time post-induction: 4.5 h; library: site-saturation at positions 5, 18, 19, 20
Consider the following sequences; for each one, report its shrunken log2 fold change.
Answers are plain numbers.

Worked cases, answers included:
| seq.text | target.of.assay | reported.value |
| --- | --- | --- |
| RRIRARPPRLPRPRPRPHAVPRP | Escherichia coli TOP10 | 0.123 |
| RRIRTRPPRLPRPRPRPYQGPRP | Escherichia coli TOP10 | -0.0132 |

Could you report shrunken log2 fold change for every entry in the following list?
1. RRIRERPPRLPRPRPRPRMWPRP
2. RRIRYRPPRLPRPRPRPVKQPRP
3. RRIRIRPPRLPRPRPRPWGLPRP
4. RRIRARPPRLPRPRPRPTHKPRP
5. RRIRKRPPRLPRPRPRPKDPPRP
6. RRIRPRPPRLPRPRPRPNDSPRP

**A:**
1: 0.302; 2: -0.00131; 3: -0.192; 4: 0.577; 5: 0.367; 6: -0.442

Could you report shrunken log2 fold change for every entry in the following list?
1. RRIRERPPRLPRPRPRPQQIPRP
2. RRIRPRPPRLPRPRPRPLVPPRP

**A:**
1. -0.384
2. 0.125

====

- Test system: Escherichia coli TOP10
- test.protocol: shrunken log2 fold change of peptide-encoding DNA abundance (4.5 h post-induction vs induction); higher = less antimicrobial activity (less host growth inhibition)
- experimental.setup: time post-induction: 4.5 h; library: site-saturation at positions 5, 18, 19, 20
Consider the following sequences; for each one, report its shrunken log2 fold change.
Numbers only.

Worked cases, answers included:
| seq.text | shrunken log2 fold change |
| --- | --- |
| RRIRQRPPRLPRPRPRPTGAPRP | 0.412 |
| RRIRIRPPRLPRPRPRPANHPRP | -0.528 |
| RRIRKRPPRLPRPRPRPSEDPRP | -0.0464 |

Could you report shrunken log2 fold change for every entry in the following list?
1. RRIRTRPPRLPRPRPRPISHPRP
2. RRIRGRPPRLPRPRPRPNCCPRP
3. RRIRWRPPRLPRPRPRPCRVPRP
4. RRIRVRPPRLPRPRPRPYGPPRP

**A:**
1. -0.328
2. 0.245
3. 0.103
4. -0.041

Could you report shrunken log2 fold change for every entry in the following list?
1. RRIRRRPPRLPRPRPRPKKIPRP
2. RRIRKRPPRLPRPRPRPHVSPRP

**A:**
1: 0.106; 2: -0.00259

====

Consider the following sequences; for each one, report its shrunken log2 fold change.
- System: Escherichia coli TOP10
- test.protocol: shrunken log2 fold change of peptide-encoding DNA abundance (4.5 h post-induction vs induction); higher = less antimicrobial activity (less host growth inhibition)
- experimental.setup: time post-induction: 4.5 h; library: site-saturation at positions 5, 18, 19, 20

Worked cases, answers included:
| seq.text | target.of.assay | shrunken log2 fold change |
| --- | --- | --- |
| RRIRARPPRLPRPRPRPKGVPRP | Escherichia coli TOP10 | 0.15 |
| RRIRSRPPRLPRPRPRPHDWPRP | Escherichia coli TOP10 | -0.323 |
| RRIRQRPPRLPRPRPRPKEAPRP | Escherichia coli TOP10 | 0.107 |

Could you report shrunken log2 fold change for every entry in the following list?
1. RRIRCRPPRLPRPRPRPRPFPRP
2. RRIRKRPPRLPRPRPRPFLNPRP
3. RRIRWRPPRLPRPRPRPYFDPRP
4. RRIRDRPPRLPRPRPRPENVPRP
5. RRIRHRPPRLPRPRPRPHNWPRP

**A:**
0.176
0.00977
-0.811
0.218
-0.214

====

- Tested on: Escherichia coli TOP10
- test.protocol: shrunken log2 fold change of peptide-encoding DNA abundance (4.5 h post-induction vs induction); higher = less antimicrobial activity (less host growth inhibition)
- experimental.setup: time post-induction: 4.5 h; library: site-saturation at positions 5, 18, 19, 20
Quick rule: shrunken log2 fold change of at least 0.1 means true, below that means false.

| seq.text | target.of.assay | category.label |
| --- | --- | --- |
| RRIRWRPPRLPRPRPRPADYPRP | Escherichia coli TOP10 | false |
| RRIRKRPPRLPRPRPRPCRRPRP | Escherichia coli TOP10 | true |
| RRIRLRPPRLPRPRPRPYTYPRP | Escherichia coli TOP10 | false |
| RRIRGRPPRLPRPRPRPAPVPRP | Escherichia coli TOP10 | true |
| RRIRKRPPRLPRPRPRPCEDPRP | Escherichia coli TOP10 | true |
| RRIRPRPPRLPRPRPRPSSAPRP | Escherichia coli TOP10 | false |

**Q:** Reported shrunken log2 fold change reaches at least 0.1 for RRIRIRPPRLPRPRPRPQWIPRP ?
**A:** true

**Q:** Reported shrunken log2 fold change reaches at least 0.1 for RRIRIRPPRLPRPRPRPLDKPRP ?
**A:** false

====

- Tested on: Escherichia coli TOP10;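 also: peptides expressed intracellularly from a pBAD plasmid library in pooled LB shake-flask culture, induced with 0.3% L-arabinose, DNA abundance read by NGS, three biological replicates, DESeq2 with apeglm shrinkage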
- test.protocol: shrunken log2 fold change of peptide-encoding DNA abundance (4.5 h post-induction vs induction); higher = less antimicrobial activity (less host growth inhibition)
- experimental.setup: time post-induction: 4.5 h; library: site-saturation at positions 5, 18, 19, 20
assay.metric: shrunken log2 fold change
Numbers only.

Worked cases, answers included:
| seq.text | shrunken log2 fold change |
| --- | --- |
| RRIRFRPPRLPRPRPRPDVRPRP | 0.0165 |
| RRIRNRPPRLPRPRPRPKQMPRP | 0.267 |
| RRIRERPPRLPRPRPRPILHPRP | -0.0255 |
| RRIRGRPPRLPRPRPRPPIEPRP | 0.196 |
| RRIRRRPPRLPRPRPRPIKGPRP | 0.174 |
| RRIRIRPPRLPRPRPRPNDHPRP | -0.569 |

Could you report shrunken log2 fold change for every entry in the following list?
1. RRIRCRPPRLPRPRPRPQGMPRP
2. RRIRSRPPRLPRPRPRPLNMPRP
3. RRIRKRPPRLPRPRPRPTTWPRP

**A:**
0.00583
-0.316
0.414

Could you report shrunken log2 fold change for every entry in the following list?
1. RRIRVRPPRLPRPRPRPFKVPRP
2. RRIRKRPPRLPRPRPRPQRAPRP
3. RRIRNRPPRLPRPRPRPRLDPRP
4. RRIRPRPPRLPRPRPRPDRWPRP
5. RRIRHRPPRLPRPRPRPPEPPRP

**A:**
1. -0.243
2. 0.944
3. 0.0403
4. 0.219
5. 0.113

Could you report shrunken log2 fold change for every entry in the following list?
1. RRIRIRPPRLPRPRPRPAACPRP
2. RRIRHRPPRLPRPRPRPDSDPRP
3. RRIRPRPPRLPRPRPRPGAQPRP
4. RRIRHRPPRLPRPRPRPCTQPRP
5. RRIRPRPPRLPRPRPRPHMLPRP

**A:**
0.156
0.0112
0.198
-0.367
-0.226

Could you report shrunken log2 fold change for every entry in the following list?
1. RRIRVRPPRLPRPRPRPYHGPRP
2. RRIRFRPPRLPRPRPRPWNHPRP
3. RRIRFRPPRLPRPRPRPHQTPRP
4. RRIRCRPPRLPRPRPRPQTPPRP
5. RRIRPRPPRLPRPRPRPTIRPRP

**A:**
[-0.237, -0.141, 0.0857, 0.48, 0.172]
